Taken from patent US20240391954A1.

# assayedSystem: human MC4R (Homo sapiens)
# Construct: host or cells: HEK-293 cells stably expressing the GScAMP22F split-luciferase cAMP sensor and hMC4R, G418 selection
# assaySummary: split-luciferase cAMP sensor assay, agonist mode (measurement window 1), hMC4R
# Format: cell-based
# details: % maximal activation, agonist mode; read-out: MC4R cAMP % max activation
# Experimental: The stable cell lines were grown and maintained in selection media consisting of Dulbecco's modified Eagle media (DMEM) with 4.5 g/l D-glucose, and 4 mM L-glutamine (Thermo Fisher Scientific, Waltham, MA), supplemented with 10% fetal bovine serum, 100 units/ml penicillin, 100 μg/ml streptomycin, 2.5 μg/ml amphotericin B, 200 μg/ml hygromycin B (for positive selection of the GScAMP22f luciferase reporter), and Geneticin™ (G418) 700 μg/ml (for MC3R or MC4R selection). […]
Positions of bridges follow the written chain, without caps; N, C: chain ends. Non-standard residues stand in square brackets, D forms with d. Residues, ends and D or L forms follow the SMILES beside them. Cit = NC(=O)NCCC[C@H](N)C(=O)O; Nle = CCCC[C@H](N)C(=O)O; Aib = CC(C)(N)C(=O)O
Give Emax for every item shown.
Form entry: enter the amount, then its unit.

N=C(N)NCCC[C@@H]1NC(=O)[C@@H](Cc2ccccc2)NC(=O)[C@H](CCCNC(N)=O)NC(=O)CNC(=O)CSC[C@@H](C(N)=O)NC(=O)[C@H](Cc2c[nH]c3ccccc23)NC1=O [CTX-1646] ({CH2CO}-G[Cit][dF]RWC-NH2; thioether N-6) has a reported Emax of 103%

CC1(C)NC(=O)CSC[C@@H](C(N)=O)NC(=O)[C@H](Cc2c[nH]c3ccccc23)NC(=O)[C@H](CCCNC(=N)N)NC(=O)[C@@H](Cc2ccccc2)NC(=O)[C@H](CCCNC(=N)N)NC1=O [CTX-1648] ({CH2CO}-[Aib]R[dF]RWC-NH2; thioether N-6) has a reported Emax of 101%

CC(=O)N[C@@H](CCCNC(=N)N)C(=O)N[C@H]1CSSC[C@@H](C(N)=O)NC(=O)[C@@H](Cc2c[nH]c3ccccc23)NC(=O)[C@H](CCCNC(=N)N)NC(=O)[C@@H](Cc2ccccc2)NC(=O)[C@H](CCCNC(=N)N)NC(=O)[C@H](C)NC1=O [CTX-1268] (Ac-RCAR[dF]R[dW]C-NH2; disulfide 2-8) has a reported Emax of 96%

CCCC[C@H](NC(=O)[C@H](CCCNC(=N)N)NC(C)=O)C(=O)N[C@H]1CSSC[C@@H](C(N)=O)NC(=O)[C@H](Cc2c[nH]c3ccccc23)NC(=O)[C@H](CCCNC(=N)N)NC(=O)[C@H](Cc2ccccc2)NC(=O)[C@H](CCCNC(N)=O)NC1=O [CTX-1609, Arg-Nle-cyclo(Cys-Cit-Phe-Arg-Trp-Cys)] (Ac-R[Nle]C[Cit]FRWC-NH2; disulfide 3-8 (inferred)) has a reported Emax of 96%

CCCC[C@H](NC(=O)[C@H](CCCNC(=N)N)NC(C)=O)C(=O)N[C@H]1CSSC[C@@H](C(N)=O)NC(=O)[C@@H](Cc2c[nH]c3ccccc23)NC(=O)[C@H](CCCNC(=N)N)NC(=O)[C@@H](Cc2ccccc2)NC(=O)[C@H](CCCNC(=N)N)NC1=O [CTX-1616] (Ac-R[Nle]CR[dF]R[dW]C-NH2; disulfide 3-8) has a reported Emax of 93%

CC(=O)N[C@@H](CCCNC(=N)N)C(=O)N[C@H]1CSSC[C@@H](C(N)=O)NC(=O)[C@H](Cc2c[nH]c3ccccc23)NC(=O)[C@H](CCCNC(=N)N)NC(=O)[C@@H](Cc2ccccc2)NC(=O)[C@H](CCCNC(=N)N)NC(=O)[C@H](C)NC1=O [CTX-1267, Arg-cyclo(Cys-Ala-Arg-D-Phe-Arg-Trp-Cys)] (Ac-RCAR[dF]RWC-NH2; disulfide 2-8) has a reported Emax of 96%

---

Give MC4R selectivity vs MC1R for every item shown.
# assayedSystem: human MC4R (Homo sapiens, UniProt P32245)
# Construct: host or cells: HEK-293 cells stably expressing the GScAMP22F split-luciferase cAMP sensor and hMC4R, G418 selection
# Sequence (P32245 whole entry): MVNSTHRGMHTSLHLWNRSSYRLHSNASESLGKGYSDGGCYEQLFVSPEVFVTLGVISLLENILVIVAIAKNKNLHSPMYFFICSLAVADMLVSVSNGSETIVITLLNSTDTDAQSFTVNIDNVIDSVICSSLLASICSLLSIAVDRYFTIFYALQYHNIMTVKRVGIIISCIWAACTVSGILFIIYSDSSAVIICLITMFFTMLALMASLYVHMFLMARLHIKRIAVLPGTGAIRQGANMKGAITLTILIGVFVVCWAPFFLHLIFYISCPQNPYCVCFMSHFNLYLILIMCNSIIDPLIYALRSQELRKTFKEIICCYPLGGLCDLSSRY
# assaySummary: split-luciferase cAMP sensor assay, agonist mode (measurement window 1), hMC4R
# Type: cell-based
Positions of bridges follow the written chain, without caps; N, C: chain ends. Non-standard residues stand in square brackets, D forms with d. Residues, ends and D or L forms follow the SMILES beside them. dPhe(4-Br) = N[C@H](Cc1ccc(Br)cc1)C(=O)O
Please give the numeric answer without any surrounding text.

CC(=O)N[C@@H](CCCNC(=N)N)C(=O)N[C@H]1CSSC[C@@H](C(=O)N[C@@H](CCCCN)C(N)=O)NC(=O)[C@@H](Cc2c[nH]c3ccccc23)NC(=O)[C@H](CCCNC(=N)N)NC(=O)[C@@H](Cc2ccc(Br)cc2)NC(=O)[C@H](CCCNC(=N)N)NC(=O)[C@@H](C)NC1=O [CTX-1218] (Ac-RC[dA]R[dPhe(4-Br)]R[dW]CK-NH2; disulfide 2-8) has a reported MC4R selectivity vs MC1R of 1

CC(=O)N[C@@H](CCCNC(=N)N)C(=O)N[C@H]1CSSC[C@@H](C(N)=O)NC(=O)[C@@H](Cc2ccccc2)NC(=O)[C@H](CCCNC(=N)N)NC(=O)[C@@H](Cc2ccc(Br)cc2)NC(=O)[C@H](CCCNC(=N)N)NC(=O)[C@@H](C)NC1=O [CTX-1255] (Ac-RC[dA]R[dPhe(4-Br)]R[dF]C-NH2; disulfide 2-8 (inferred)) has a reported MC4R selectivity vs MC1R of 0.05
